- TARGET ENTITY: UniProt:P07947
- Sequence (P07947 whole entry, looked up): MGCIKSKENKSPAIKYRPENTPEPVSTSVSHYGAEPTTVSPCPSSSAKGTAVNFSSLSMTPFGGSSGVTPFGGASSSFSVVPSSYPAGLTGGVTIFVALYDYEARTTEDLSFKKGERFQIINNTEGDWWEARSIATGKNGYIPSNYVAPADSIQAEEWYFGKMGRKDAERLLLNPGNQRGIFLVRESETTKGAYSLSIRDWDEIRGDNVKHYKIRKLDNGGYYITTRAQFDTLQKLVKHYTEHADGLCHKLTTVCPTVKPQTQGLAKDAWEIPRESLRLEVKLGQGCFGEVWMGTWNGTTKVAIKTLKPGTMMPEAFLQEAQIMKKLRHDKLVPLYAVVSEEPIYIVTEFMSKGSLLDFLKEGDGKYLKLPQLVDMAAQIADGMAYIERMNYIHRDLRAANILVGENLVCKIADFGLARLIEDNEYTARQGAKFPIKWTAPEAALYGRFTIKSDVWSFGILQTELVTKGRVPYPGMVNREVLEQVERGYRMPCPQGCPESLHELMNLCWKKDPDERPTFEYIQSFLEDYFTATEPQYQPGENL
- TEST METHOD NOTES: radiometric filter-binding kinase assay, Kinase HotSpot
- ASSAY CONTEXT: compound 0.5 µM; ATP 10 µM
residual activity listing for selected molecules.
Answer with a number only, understood to be in %.

Some molecules with recorded residual activity:
{"columns": ["SAMPLE SMILES", "residual activity / %"],
 "data": [
  ["Cc1ccc(NC(=O)c2ccc(CN3CCN(C)CC3)cc2)cc1Nc1nc(-c2cccnc2)cs1", 50.7],
  ["Cc1cc2ncc(-c3ccccc3)nc2cc1C", 102]
]}

Continue with the next molecule.
Problem: Field request: residual activity | item: "O=c1cc(N2CCNCC2)oc2c(-c3ccccc3)cccc12"
Result: 96.4

---

- TARGET ENTITY: WNK3 (human)
- TEST METHOD NOTES: radiometric filter-binding kinase assay, Kinase HotSpot
- ASSAY CONTEXT: compound 0.5 µM; ATP 10 µM
READOUT: residual activity
Write your answer as a measured quantity: the number, then the unit.

Some compounds with recorded residual activity:
{"columns": ["COMPOUND", "TARGET ENTITY", "residual activity"],
 "data": [
  ["Nc1nc(Nc2ccc(S(N)(=O)=O)cc2)nn1C(=S)Nc1c(F)cccc1F", "WNK3 (human)", "82.2%"],
  ["Nc1nc(Nc2ccc(S(N)(=O)=O)cc2)nn1C(=O)c1c(F)cccc1F", "WNK3 (human)", "98.3%"],
  ["CSc1nc(-c2ccc(F)cc2)c(-c2ccnc(NC(C)c3ccccc3)c2)[nH]1 (stereo unspecified)", "WNK3 (human)", "97.6%"],
  ["COc1cc2ncnc(Nc3ccc(F)c(Cl)c3)c2cc1OCCCN1CCOCC1", "WNK3 (human)", "102%"],
  ["O=C1Cc2c([nH]c3ccc([N+](=O)[O-])cc23)-c2ccccc2N1", "WNK3 (human)", "99.7%"]
]}

Problem: Field request: residual activity | item: "Nc1n[nH]c2nnc(-c3c(-c4ccccc4)nn4ccccc34)cc12"
Result: 101%

Problem: Repeat for the following compound: "O=c1cc(-c2cccc3c2Sc2ccccc2S3)oc(N2CCOCC2)c1"
Result: 109%

Problem: Repeat for the following compound: "CC(C)[C@H](CO)Nc1nc(Nc2cccc(Cl)c2)c2ncn(C(C)C)c2n1"
Result: 89.1%

---

residual activity listing for selected compounds.
- TARGET ENTITY: EPHA6 (human) (UniProt Q9UF33)
- Sequence (Q9UF33 whole entry, looked up): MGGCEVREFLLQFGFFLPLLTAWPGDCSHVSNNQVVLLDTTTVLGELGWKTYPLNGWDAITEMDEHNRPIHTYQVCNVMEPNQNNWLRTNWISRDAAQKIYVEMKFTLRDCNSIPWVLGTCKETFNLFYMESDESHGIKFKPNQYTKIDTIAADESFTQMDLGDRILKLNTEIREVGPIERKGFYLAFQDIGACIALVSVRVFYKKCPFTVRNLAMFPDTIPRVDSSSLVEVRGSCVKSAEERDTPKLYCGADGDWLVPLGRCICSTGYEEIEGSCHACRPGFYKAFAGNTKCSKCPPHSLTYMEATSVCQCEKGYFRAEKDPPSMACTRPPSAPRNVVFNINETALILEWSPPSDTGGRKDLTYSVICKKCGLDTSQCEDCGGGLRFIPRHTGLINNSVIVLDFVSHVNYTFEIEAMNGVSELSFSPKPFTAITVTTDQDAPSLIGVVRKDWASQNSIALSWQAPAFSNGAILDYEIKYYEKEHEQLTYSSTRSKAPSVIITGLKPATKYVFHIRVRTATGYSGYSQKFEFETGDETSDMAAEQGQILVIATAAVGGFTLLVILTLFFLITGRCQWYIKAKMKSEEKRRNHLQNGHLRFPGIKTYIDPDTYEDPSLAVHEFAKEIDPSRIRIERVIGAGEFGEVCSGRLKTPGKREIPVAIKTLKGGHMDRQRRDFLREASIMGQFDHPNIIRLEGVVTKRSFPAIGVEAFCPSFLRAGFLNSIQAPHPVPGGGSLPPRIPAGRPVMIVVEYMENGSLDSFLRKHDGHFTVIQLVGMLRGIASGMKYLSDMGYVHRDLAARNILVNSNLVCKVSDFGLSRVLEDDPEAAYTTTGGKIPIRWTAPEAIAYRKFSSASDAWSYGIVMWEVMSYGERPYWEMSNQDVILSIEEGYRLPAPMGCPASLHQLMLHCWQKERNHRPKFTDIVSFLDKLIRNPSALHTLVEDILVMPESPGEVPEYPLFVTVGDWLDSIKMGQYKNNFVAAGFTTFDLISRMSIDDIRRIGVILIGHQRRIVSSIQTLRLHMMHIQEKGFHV
- TEST METHOD NOTES: radiometric filter-binding kinase assay, Kinase HotSpot
- ASSAY CONTEXT: compound 0.5 µM; ATP 10 µM
Answer with a number only, understood to be in %.

Some compounds with recorded residual activity:
{"columns": ["COMPOUND", "UNIT ABBREVIATION", "residual activity"],
 "data": [
  ["Cc1ccc(NC(=O)c2ccc(CN3CCN(C)CC3)cc2)cc1Nc1nc(-c2cccnc2)cs1", "%", 98.2],
  ["C#Cc1cccc(Nc2ncnc3cc(OCCOC)c(OCCOC)cc23)c1", "%", 40.4],
  ["CCCNC(=O)Nc1ccc(Oc2ncnc3cc(OC)c(OC)cc23)cc1Cl", "%", 77.7],
  ["NC(=O)c1ccc(N(C(N)=O)c2c(F)cccc2F)nc1-c1ccc(F)cc1F", "%", 95],
  ["CS(=O)c1ccc(-c2nc(-c3ccc(F)cc3)c(-c3ccncc3)[nH]2)cc1 (stereo unspecified)", "%", 57.2]
]}

Problem: Record lookup: for EPHA6 (human) (UniProt Q9UF33), what residual activity belongs to "COc1cc2ncnc(Nc3ccc(F)c(Cl)c3)c2cc1OCCCN1CCOCC1" ?
Result: 28.9

Problem: Repeat for the following compound: "O=c1cc(N2CCNCC2)oc2c(-c3ccccc3)cccc12"
Result: 88.2

Problem: Repeat for the following compound: "Cc1cc2ncc(-c3ccccc3)nc2cc1C"
Result: 93

Problem: Repeat for the following compound: CSc1nc(-c2ccc(F)cc2)c(-c2ccnc(NC(C)c3ccccc3)c2)[nH]1 (stereo unspecified)
Result: 75.8

Problem: Repeat for the following compound: "COc1cc2nccc(Oc3ccc(NC(=S)NC(=O)c4ccccc4C)cc3)c2cc1OC"
Result: 33

Problem: Repeat for the following compound: "COc1ccc(-c2cnc3c(-c4ccsc4)cnn3c2)cc1"
Result: 85.1

---

- TARGET ENTITY: PAK3 (human)
- TEST METHOD NOTES: radiometric filter-binding kinase assay, Kinase HotSpot
- ASSAY CONTEXT: compound 0.5 µM; ATP 10 µM
residual activity listing for selected compounds.
Answer with a number only, understood to be in %.

Some compounds with recorded residual activity:
{"columns": ["COMPOUND", "VALUE REPORTED"],
 "data": [
  ["O=C1Cc2c([nH]c3ccc([N+](=O)[O-])cc23)-c2ccccc2N1", 80.4],
  ["O=C1Nc2cc(Br)ccc2/C1=C1/Nc2ccccc2/C1=N\\O", 99.7],
  ["NC(=O)c1ccc(N(C(N)=O)c2c(F)cccc2F)nc1-c1ccc(F)cc1F", 98.3],
  ["COc1ccc(-c2cnc3c(-c4ccsc4)cnn3c2)cc1", 96.4],
  ["Nc1n[nH]c2nnc(-c3c(-c4ccccc4)nn4ccccc34)cc12", 100]
]}

Problem: Field request: residual activity | item: "CCCNC(=O)Nc1ccc(Oc2ncnc3cc(OC)c(OC)cc23)cc1Cl"
Result: 94.7

Problem: Repeat for the following compound: CS(=O)c1ccc(-c2nc(-c3ccc(F)cc3)c(-c3ccncc3)[nH]2)cc1 (stereo not given)
Result: 102

Problem: Repeat for the following compound: "Cc1ccc(NC(=O)c2ccc(CN3CCN(C)CC3)cc2)cc1Nc1nc(-c2cccnc2)cs1"
Result: 106

Problem: Repeat for the following compound: "Oc1ccc(-c2nc(-c3ccc(F)cc3)c(-c3ccncc3)[nH]2)cc1"
Result: 98.7

Problem: Repeat for the following compound: "Cc1cc2ncc(-c3ccccc3)nc2cc1C"
Result: 96.2

Problem: Repeat for the following compound: "Nc1nc(Nc2ccc(S(N)(=O)=O)cc2)nn1C(=S)Nc1c(F)cccc1F"
Result: 35.4

Problem: Repeat for the following compound: "O=c1cc(-c2cccc3c2Sc2ccccc2S3)oc(N2CCOCC2)c1"
Result: 95

---

residual activity listing for selected compounds.
- TARGET ENTITY: TBK1 (human) (UniProt Q9UHD2)
- Sequence (Q9UHD2 whole entry, looked up): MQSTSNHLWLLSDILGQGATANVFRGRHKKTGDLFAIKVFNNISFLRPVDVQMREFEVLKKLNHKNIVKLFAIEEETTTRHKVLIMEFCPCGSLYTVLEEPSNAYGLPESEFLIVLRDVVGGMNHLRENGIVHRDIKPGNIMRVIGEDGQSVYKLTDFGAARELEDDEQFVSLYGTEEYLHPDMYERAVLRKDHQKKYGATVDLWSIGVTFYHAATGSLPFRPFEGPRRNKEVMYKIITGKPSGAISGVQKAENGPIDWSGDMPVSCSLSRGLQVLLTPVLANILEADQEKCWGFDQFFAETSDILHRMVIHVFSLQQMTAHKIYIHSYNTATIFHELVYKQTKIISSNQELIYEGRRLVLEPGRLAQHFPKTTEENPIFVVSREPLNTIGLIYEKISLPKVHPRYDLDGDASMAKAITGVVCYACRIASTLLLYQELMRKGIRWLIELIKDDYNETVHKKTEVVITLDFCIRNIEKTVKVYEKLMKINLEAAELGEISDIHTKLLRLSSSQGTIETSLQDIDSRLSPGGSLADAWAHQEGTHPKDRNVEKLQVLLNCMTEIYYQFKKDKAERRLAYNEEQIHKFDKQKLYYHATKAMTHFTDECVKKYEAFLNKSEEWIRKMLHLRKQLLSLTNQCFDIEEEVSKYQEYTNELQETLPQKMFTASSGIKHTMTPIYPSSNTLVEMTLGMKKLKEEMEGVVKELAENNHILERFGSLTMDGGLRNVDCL
- TEST METHOD NOTES: radiometric filter-binding kinase assay, Kinase HotSpot
- ASSAY CONTEXT: compound 0.5 µM; ATP 10 µM

{"columns": ["SAMPLE SMILES", "READOUT", "VALUE REPORTED"],
 "data": [
  ["CC(C)[C@H](CO)Nc1nc(Nc2cccc(Cl)c2)c2ncn(C(C)C)c2n1", "residual activity", "93%"],
  ["CC(C)n1cnc2c(Nc3cccc(Cl)c3)nc(NCCO)nc21", "residual activity", "89.2%"]
]}

Continue with the next compound.
Problem: Field request: residual activity | item: "Oc1ccc(-c2nc(-c3ccc(F)cc3)c(-c3ccncc3)[nH]2)cc1"
Result: 95.2%

---

- TARGET ENTITY: FLT1 (human)
- TEST METHOD NOTES: radiometric filter-binding kinase assay, Kinase HotSpot
- ASSAY CONTEXT: compound 0.5 µM; ATP 10 µM
READOUT: residual activity (%)
Answer with a number only, understood to be in %.

Some compounds with recorded residual activity:
{"columns": ["SAMPLE SMILES", "residual activity (%)"],
 "data": [
  ["O=C1Nc2ccccc2/C1=C\\c1c(Cl)[nH]c2ccccc12", 88.6],
  ["O=c1cc(-c2cccc3c2Sc2ccccc2S3)oc(N2CCOCC2)c1", 90.8]
]}

Problem: Record lookup: for FLT1 (human), what residual activity belongs to "O=C1Cc2c([nH]c3ccc([N+](=O)[O-])cc23)-c2ccccc2N1" ?
Result: 98.2

---

residual activity listing for selected molecules.
- TARGET ENTITY: UniProt:P49840
- Sequence (P49840 whole entry, looked up): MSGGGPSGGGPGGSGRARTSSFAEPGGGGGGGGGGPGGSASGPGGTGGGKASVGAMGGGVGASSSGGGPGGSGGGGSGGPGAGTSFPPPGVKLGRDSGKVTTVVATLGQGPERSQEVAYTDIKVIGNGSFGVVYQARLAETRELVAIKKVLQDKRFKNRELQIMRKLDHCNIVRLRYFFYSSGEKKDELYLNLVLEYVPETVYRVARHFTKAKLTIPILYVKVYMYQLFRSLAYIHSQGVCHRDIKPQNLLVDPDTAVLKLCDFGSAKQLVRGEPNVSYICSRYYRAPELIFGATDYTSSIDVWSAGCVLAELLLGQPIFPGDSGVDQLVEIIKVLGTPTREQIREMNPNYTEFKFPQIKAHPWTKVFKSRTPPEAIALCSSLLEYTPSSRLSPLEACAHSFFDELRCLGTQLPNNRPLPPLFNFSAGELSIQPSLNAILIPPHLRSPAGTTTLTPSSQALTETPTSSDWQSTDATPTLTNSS
- TEST METHOD NOTES: radiometric filter-binding kinase assay, Kinase HotSpot
- ASSAY CONTEXT: compound 0.5 µM; ATP 10 µM
Answer with a number only, understood to be in %.

Some molecules with recorded residual activity:
{"columns": ["SAMPLE SMILES", "residual activity [%]"],
 "data": [
  ["CC(C)[C@H](CO)Nc1nc(Nc2cccc(Cl)c2)c2ncn(C(C)C)c2n1", 108],
  ["Nc1nc(Nc2ccc(S(N)(=O)=O)cc2)nn1C(=S)Nc1c(F)cccc1F", 6.3],
  ["Nc1n[nH]c2nnc(-c3c(-c4ccccc4)nn4ccccc34)cc12", 81.2]
]}

Continue with the next molecule.
Problem: Field request: residual activity | item: "O=c1cc(-c2cccc3c2Sc2ccccc2S3)oc(N2CCOCC2)c1"
Result: 86.7

---

residual activity listing for selected compounds.
- TARGET ENTITY: CAMK1G (human)
- TEST METHOD NOTES: radiometric filter-binding kinase assay, Kinase HotSpot
- ASSAY CONTEXT: compound 0.5 µM; ATP 10 µM
Answer with a number only, understood to be in %.

Some compounds with recorded residual activity:
{"columns": ["COMPOUND", "UNIT ABBREVIATION", "residual activity"],
 "data": [
  ["CC(C)n1cnc2c(Nc3cccc(Cl)c3)nc(NCCO)nc21", "%", 98.7],
  ["Cc1ccc(NC(=O)c2ccc(CN3CCN(C)CC3)cc2)cc1Nc1nc(-c2cccnc2)cs1", "%", 106],
  ["O=C1Nc2cc(Br)ccc2/C1=C1/Nc2ccccc2/C1=N\\O", "%", 96],
  ["O=C(NC(NC(=S)Nc1ccc(F)c([N+](=O)[O-])c1)C(Cl)(Cl)Cl)C(c1ccccc1)c1ccccc1 (stereo unspecified)", "%", 102],
  ["Cc1cc2ncc(-c3ccccc3)nc2cc1C", "%", 101],
  ["CC(C)[C@H](CO)Nc1nc(Nc2cccc(Cl)c2)c2ncn(C(C)C)c2n1", "%", 94.9],
  ["O=C1Cc2c([nH]c3ccc([N+](=O)[O-])cc23)-c2ccccc2N1", "%", 96],
  ["O=c1cc(-c2cccc3c2Sc2ccccc2S3)oc(N2CCOCC2)c1", "%", 99.4],
  ["C#Cc1cccc(Nc2ncnc3cc(OCCOC)c(OCCOC)cc23)c1", "%", 111],
  ["O=c1cc(N2CCNCC2)oc2c(-c3ccccc3)cccc12", "%", 94.7]
]}

Continue with the next compound.
Problem: Field request: residual activity | item: "Oc1ccc(-c2nc(-c3ccc(F)cc3)c(-c3ccncc3)[nH]2)cc1"
Result: 98.5
